System: Plasmodium falciparum
measurement_protocol: GSK_TCMDC: Inhibition of Plasmodium falciparum 3D7 in whole red blood cells, using parasite LDH activity as an index of growth. Test compounds present at 2uM
Format: functional
Below, each entry is listed alongside its reported Inhibition.
Report the value in % with no unit label.

Reference set (4 entries):
Br.C=CCc1cccc(C)c1OCCCON1C(=N)N=C(N)NC1(C)C = 94
CC(=O)Nc1ccc(CNC2Cc3ccc(-c4ccc(Cl)c(Cl)c4)cc3C2)cc1 (stereo not given) = 89
CN(CCCCCNC(=O)/C=C/c1ccc(Cl)c(Cl)c1)CCc1c[nH]c2ccccc12 = 91
O=C(/C=C/c1ccc(Cl)c(Cl)c1)NCCCCCN1CCC(CCNC(=O)/C=C/c2ccc(Cl)c(Cl)c2)CC1 = 100

Now look at this one.
Let me know recorded Inhibition for COc1cccc2cc(C(=O)N[C@@H](CC(C)C)C(=O)N[C@H](C=NN3CCCC3=O)Cc3ccccc3)oc12 , thanks. 96

====

Test system: HepG2
measurement_protocol: GSK_TCMDC: Percent inhibition of human HepG2 cell line. Test compounds present at 10uM.
Type: functional
Output Satisfied for Inhibition not less than 40%; output Not satisfied otherwise.

As a guide, the following entries are already answered.
CC(C)(C)c1ccc(N2C(N)=NC(N)=NC2(C)C)cc1Cl.Cl = Satisfied
COc1ccccc1C1CC(c2ccc(C)cc2)=NN1C(=O)c1ccccc1 (centres undefined) = Not satisfied
Clc1ncccc1-c1nc(NCCC(c2ccccc2)c2ccccc2)no1 = Not satisfied
Cl.O=C(Nc1ccc(C(=O)OCC2CCCN3CCCCC23)cc1)c1ccc(Cl)c(Cl)c1 (centres undefined) = Not satisfied

Does the reported Inhibition for CC(C)c1ccc(NC(=O)c2ccc(CN3CCCN(Cc4cccc(O)c4)CC3)cc2)cc1.O=C(O)C(F)(F)F fall at or above the 40% mark? Satisfied

Evaluate Br.CCCN(CCCCCCNCCc1ccc(Cl)cc1)CCc1ccc(O)c(O)c1 : Inhibition at minimum 40%? Not satisfied

Textbook exercise: given the entry Cn1c2c(c3ccccc31)CN(CCC1(c3ccc(Cl)c(Cl)c3)CN(C(=O)Cc3ccccc3)CCO1)CC2 (centres undefined) , state whether its Inhibition is greater than or equal to 40%. Not satisfied

Check the entry CC(C)(C)c1ccc(CN2CCC(CNC(=O)c3cc(-c4cccc(F)c4)cs3)C2)cc1.O=C(O)C(F)(F)F (centres undefined) : does Inhibition equal or exceed 40%? Not satisfied

Evaluate COc1ccc2cc(C(=O)NC3CCC(CCN4CCc5cc(C#N)ccc5C4)CC3)[nH]c2c1.Cl (centres undefined) : Inhibition at minimum 40%? Not satisfied

====

System: HepG2
measurement_protocol: GSK_TCMDC: Percent inhibition of human HepG2 cell line. Test compounds present at 10uM.
Assay type: functional
// label = 1.0 if Inhibition is not less than 20%, otherwise 0.0

Check out these entries, answers already filled in.
Cc1ccc(NS(=O)(=O)c2ccc(C(C)N3CCC(N4CCCCC4)CC3)cc2)cc1C (centres undefined) = 1.0
CCCC(N)C(=O)NC1CCN(c2c(F)c(N)c3c(=O)c(C(=O)O)cn4c3c2Oc2ccccc2-4)C1.Cl (centres undefined) = 1.0
Cc1cc(NCc2ccccc2)nc2cc(O)ccc12 = 0.0
O=C(c1cc(C(=O)Nc2ccccc2)c(=O)n(-c2ccccc2)c1)c1cc(Cl)ccc1O = 0.0

Given CC(=O)Nc1nc(C(=O)Nc2cccc(-c3ccc4c(cnn4CC4CC4)c3)c2)cs1 , state whether its Inhibition is at least 20%. 0.0

Does CC(C)(C)c1ccc2[nH]c(-c3ccc(/C=C/C(=O)NCc4cccc(C(F)(F)F)c4)cc3)nc2c1 have a reported Inhibition of at least 20%? 1.0

Identify whether the reported Inhibition of the following compound is 20% or greater: NC(=O)c1cccc(C(=O)Nc2cccc(-c3cccc(-c4nc5cc(F)ccc5[nH]4)c3)c2)c1 1.0

// inclusive: Inhibition at least 20%? input: O=C(/C=C/c1ccc(Cl)c(Cl)c1)NCCCCCN1CCCN(C(=O)Nc2ccc(Cl)c(C(F)(F)F)c2)CC1 1.0

Is reported Inhibition greater than or equal to 20% here: CCOc1ccc(C(=O)Nc2cc(Br)c3c(c2)CNCC3)cc1C#N.Cl 0.0
